# SETTINGS: in n-propanol, 293.15 K
PROPERTY_NAME: solubility (mole fraction)

Qu. Quick check: solubility (mole fraction) of Nc1ccc(N2CCOCC2=O)cc1 ?
Ans. 0.000649

---

# SETTINGS: in methanol, 293.15 K
PROPERTY_NAME: solubility (mole fraction)

Qu. Quick check: solubility (mole fraction) of Nc1ccc(N2CCOCC2=O)cc1 ?
Ans. 0.00367

---

# SETTINGS: in THF, 318.15 K
PROPERTY_NAME: solubility (mole fraction)
Lab note: record the figure alone, no unit after it.

Qu. Quick check: solubility (mole fraction) of Nc1ccc(N2CCOCC2=O)cc1 ?
Ans. 0.0107

The measured values listed here are drawn from BigSolDB 2.1.
